// reported pKi per item
# target_system: Carbonic anhydrase 2 (Bos taurus)
# Sequence (P00921 whole entry): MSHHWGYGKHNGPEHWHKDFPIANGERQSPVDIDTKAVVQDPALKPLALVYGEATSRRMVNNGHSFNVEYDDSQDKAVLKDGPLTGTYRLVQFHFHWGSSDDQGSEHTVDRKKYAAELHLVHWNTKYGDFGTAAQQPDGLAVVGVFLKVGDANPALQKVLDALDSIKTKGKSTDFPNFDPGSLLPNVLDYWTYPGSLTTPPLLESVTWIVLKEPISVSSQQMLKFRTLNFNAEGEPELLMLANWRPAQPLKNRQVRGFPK
pKi: −log10 of the molar value.
reported_metric: pKi

{"smiles_input": "O=C(N/N=C/c1ccccc1[N+](=O)[O-])N/N=C/c1ccccc1[N+](=O)[O-]", "measured": 5.74}
{"smiles_input": "O=C(N/N=C/c1cc([N+](=O)[O-])ccc1Cl)N/N=C/c1cc([N+](=O)[O-])ccc1Cl", "measured": 5.45}
{"smiles_input": "O=C(N/N=C/c1ccc([N+](=O)[O-])cc1)N/N=C/c1ccc([N+](=O)[O-])cc1", "measured": 5.63}
{"smiles_input": "O=C(N/N=C/c1ccccc1Cl)N/N=C/c1ccccc1Cl", "measured": 5.39}

Every entry's value here was drawn from BindingDB's records for doi:10.1016/j.bioorg.2017.03.014.
